Multiple publications report IC50 for Tyrosine-protein kinase JAK2 (Homo sapiens); what follows is a combined list.

Entry Cc1cnc2nc1NCCCCCCC(=O)N1CCN(CC1)c1cnc(F)c(c1)N2 , Tyrosine-protein kinase JAK2 (Homo sapiens) data, IC50 value: 101 to 1000 nM

Entry CN(c1ncnc2[nH]ccc12)C1CC2(C1)CN(C(=O)c1ccc(C#N)cc1Cl)C2 , Tyrosine-protein kinase JAK2 (Homo sapiens) data, IC50 value: 100 to 1000 nM

Entry O=S(=O)(N1CC(CCF)(n2cc(-c3nc(-c4cnn(C5CCOCC5)c4)cc4nccn34)cn2)C1)C(F)(F)F , Tyrosine-protein kinase JAK2 (Homo sapiens) data, IC50 value: < 10 nM

Entry C[C@@H]1C[C@H](Nc2c(-c3ncco3)cnc3[nH]ccc23)CN(C(=O)CC#N)C1 (single isomer, unassigned) , Tyrosine-protein kinase JAK2 (Homo sapiens) data, IC50 value: 100 to 1000 nM

Entry N#CCC(C1CC1)n1cc(-c2ccnc(Nc3ccc(C(=O)NC4CCOCC4)cc3)n2)cn1 (racemic) , Tyrosine-protein kinase JAK2 (Homo sapiens) data, IC50 value: < 100 nM

Entry N#CCC1(n2cc(-c3ncnc4[nH]ccc34)cn2)CN(C2CCN(C(=O)c3ccc(-c4cccnc4)c(F)c3)CC2)C1 , Tyrosine-protein kinase JAK2 (Homo sapiens) data, IC50 value: ≤ 10 nM

Entry CO[C@H]1CNc2cc(Nc3ncc(C(N)=O)c(NC4C5CC6CC4CC(OC)(C6)C5)n3)ccc2OC1 (stereo partly shown) , Tyrosine-protein kinase JAK2 (Homo sapiens) data, IC50 value: < 10 nM

Entry CCC(Cn1ccc2cnc(Nc3cnn(CC(=O)OC[C@H](C)O)c3)nc21)C(C)C (stereo partly shown) , Tyrosine-protein kinase JAK2 (Homo sapiens) data, IC50 value: < 100 nM

From here, focus on the item given below.
Entry CN(c1ncnc2[nH]ccc12)C1CC2(C1)CN(C(=O)c1cccnc1)C2 , Tyrosine-protein kinase JAK2 (Homo sapiens) data, IC50 value: 100 to 1000 nM

====

Multiple publications report IC50 for Tyrosine-protein kinase JAK2 (Homo sapiens, UniProt O60674); what follows is a combined list.

Below, each entry is followed by its recorded IC50 result.
Entry CCOC(=O)c1cnc2[nH]ccc2c1N[C@H]1C[C@@H](NS(=O)(=O)c2cccc(C#N)c2)C1 , Tyrosine-protein kinase JAK2 (Homo sapiens, UniProt O60674) data, IC50 value: 0.01 to 0.1 µM

Entry CCC(CC)n1cc(-c2nc(-c3cnn(CC(C)(O)CO)c3)cn3nccc23)cn1 (stereo not shown) , Tyrosine-protein kinase JAK2 (Homo sapiens, UniProt O60674) data, IC50 value: 0.01 to 0.1 µM

Entry CCC(CC)n1cc(-c2nc(-c3cnn(C4CN(C(=O)C(C)C)C4)c3)cn3nccc23)cn1 , Tyrosine-protein kinase JAK2 (Homo sapiens, UniProt O60674) data, IC50 value: 0.01 to 0.1 µM

From here, focus on the item given below.
Entry N#CCC1(n2cc(-c3ncnc4[nH]ccc34)cn2)CN(C2CCN(C(=O)c3c(F)cccc3F)CC2)C1 , Tyrosine-protein kinase JAK2 (Homo sapiens, UniProt O60674) data, IC50 value: ≤ 0.01 µM

====

Multiple publications report pIC50 for Tyrosine-protein kinase JAK2 (Homo sapiens); what follows is a combined list.
pIC50: −log10 of the molar value.

// pIC50 lookup, compound = N#Cc1ccc(-c2ccnc(Nc3ccc(N4CCOCC4)cc3)n2)cc1Cl , result: < 6.00

// pIC50 lookup, compound = O=C(NC1CCOCC1)c1ccc(-c2cnc3ccc(NCc4cc(F)ccc4F)nn23)cc1 , result: 7.89

// pIC50 lookup, compound = O=C1CCc2cc(Nc3ncc4ccn(Cc5ccccc5OC(F)F)c4n3)ccc2N1 , result: > 7.70

// pIC50 lookup, compound = CC(C)(C)NS(=O)(=O)c1cccc(N2CCc3cnc(Nc4ccc(CN5CCOCC5)cc4)nc32)c1 , result: 9.10

***
// pIC50 lookup, compound = Cc1cnc2nc1Nc1cccc(c1)CCNC(=O)c1ccc(cc1S(C)(=O)=O)-c1cnc(F)c(c1)N2 , result: > 8.00

// pIC50 lookup, compound = N#CCCN1[C@@H]2CC[C@H]1C[C@H](Nc1nc(Nc3ncc(CO)s3)cc3ncccc13)C2 , result: 9.28

// pIC50 lookup, compound = N#CCC1(n2cc(-c3ncnc4[nH]ccc34)cn2)CN(C2CCN(Cc3ccc4c(c3)OCCO4)CC2)C1 , result: 7.30 to 8.00

// pIC50 lookup, compound = CCC(CC)n1cc(-c2nc(-c3cnn(CC(O)CC(F)(F)F)c3)cn3nccc23)cn1 (stereo not drawn) , result: 7.00 to 8.00

// pIC50 lookup, compound = CCC(=O)c1cnc(Nc2ccc(CN(C)CC(F)(F)F)cn2)cc1Nc1cccc(-c2ncn(C)n2)c1OC , result: ≤ 6.30

// pIC50 lookup, compound = N#CCC(C1CCCC1)n1cc(-c2ccnc(Nc3ccc(C(=O)N4CCC5(CC4)CNC(=O)C5)cc3)n2)cn1 (racemic) , result: > 7.00

// pIC50 lookup, compound = Cn1cc(C(=O)NCCC(F)(F)F)c2c1CCN(c1ncnc3[nH]ccc13)C2 , result: 6.30 to 7.00

// pIC50 lookup, compound = Cc1ccc(NC(=O)c2cccc(C(F)(F)F)c2)cc1N1CCc2nc(Nc3ccc(C(=O)N4CCN(C)CC4)nc3)ncc2C1 , result: 8.52

// pIC50 lookup, compound = N#CCC1(n2cc(-c3ncnc4[nH]ccc34)cn2)CN(C2CCN(C(=O)Nc3cccc(Cl)c3F)CC2)C1 , result: ≥ 8.00
